- System: Staphylococcus aureus
- Assay procedure: Antibacterial activity against methicillin-susceptible Staphylococcus aureus ATCC 49775 incubated for 16 to 20 hrs by CLSI based broth microdilution method
- Format: functional
- Experimental context: time 16-20 hrs
Endpoint label: MIC (µg/mL)
Number only, in µg/mL; omit the unit.

| Smiles text | Endpoint unit | Assay result |
| --- | --- | --- |
| Nc1ncnc2c1ncn2CCCCCS(=O)(=O)NC(=O)NCCCC[C@@H]1SC[C@@H]2NC(=O)N[C@@H]21 | µg/mL | 16 |
| Nc1ncnc2c1ncn2CCCCOS(=O)(=O)NC(=O)NCCCC[C@@H]1SC[C@@H]2NC(=O)N[C@@H]21 | µg/mL | 32 |

Q. GET /values?readout=MIC&system=Staphylococcus aureus&item= Nc1ncnc2c1ncn2CCCNS(=O)(=O)NC(=O)OCCCCC[C@@H]1SC[C@@H]2NC(=O)N[C@@H]21
A. 32
